Please respond with reported GI50 for every item in the list.
tested on: NCI-H23 lung; assay: NCI tumour cell line growth inhibition, 48 h

Examples with their reported GI50 follow.
[O]=[W](=[O])([OH])[OH] ... > 100 µM
C/C=C1\C[C@@H]2C(OC)Nc3cc(O)c(OC)cc3C(=O)N2C1 (some centres undefined) ... 0.00262 µM
COc1cc(/C=N/Nc2ncnc3c2cnn3Cc2ccccc2)ccc1O ... 11.9 µM

`N=C(N)c1ccc(-c2ccc(-c3ccc(Cl)c(Cl)c3)o2)nc1` yielded GI50 of 2.02 µM

###

test system: MDA-MB-435; test: NCI tumour cell line growth inhibition, 48 h
I'd be grateful if you could share measured TGI for these entries.

Some solved entries appear below for comparison.
COc1cc(S(=O)(=O)Nc2ccc(-c3csc(/N=C\C=C\c4ccccc4)n3)cc2)ccc1Cl ... > 100 µM
Cc1ccc(N=Nc2c(C)nn(C(=O)CC(=O)Nc3ccc(Cl)cc3)c2C)cc1C ... > 100 µM

# per-item lookup of TGI; items listed below
1. O=C1NCC2(CCNCC2)N1
2. O=C(Nc1ccc(N2C(=O)CSC2c2cccs2)cc1)c1ccc(N2C(=O)CSC2c2cccs2)cc1 (stereo unspecified)
3. O=C1C=C(NCCc2cc(Cl)c(O)c(Cl)c2)C(=O)c2[nH]cnc21
4. N=C(N)c1ccc(-c2ccc(-c3ccc(Cl)c(Cl)c3)o2)nc1

["> 100 µM", "> 100 µM", "30.3 µM", "3.25 µM"]
